Reference source: ChEMBL document CHEMBL5728816

TEST_TARGET: Receptor-interacting serine/threonine-protein kinase 2 (Homo sapiens, UniProt O43353)
Sequence (O43353 whole entry): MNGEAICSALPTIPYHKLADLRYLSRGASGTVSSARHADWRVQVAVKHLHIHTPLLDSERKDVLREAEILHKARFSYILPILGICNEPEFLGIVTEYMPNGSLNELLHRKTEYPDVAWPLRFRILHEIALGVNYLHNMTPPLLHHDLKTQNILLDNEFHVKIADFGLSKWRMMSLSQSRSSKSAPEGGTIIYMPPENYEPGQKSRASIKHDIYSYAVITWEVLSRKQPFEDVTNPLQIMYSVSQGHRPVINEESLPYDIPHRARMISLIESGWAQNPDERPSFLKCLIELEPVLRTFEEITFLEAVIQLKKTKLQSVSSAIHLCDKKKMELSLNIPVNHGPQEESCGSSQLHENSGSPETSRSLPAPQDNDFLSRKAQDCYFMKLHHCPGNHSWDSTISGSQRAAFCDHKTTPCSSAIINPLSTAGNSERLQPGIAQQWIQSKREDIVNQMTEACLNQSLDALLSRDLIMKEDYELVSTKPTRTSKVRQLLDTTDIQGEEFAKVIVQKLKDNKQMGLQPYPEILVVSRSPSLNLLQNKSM
EXPERIMENT_DESCRIPTION: TR-FRET Assay: All data was collected using a standard TR-FRET screening assay: LanthaScreen Tracer 199 at 50 nM, Eu-anti-His Antibody at 2 nM, 5 nM RIPK2 enzyme, and 1× Kinase Reaction Buffer. There was a 1 hour incubation prior to read. TR-FRET signal of the interaction (340Ex/665Em/615Em) was read at room temperature with standard setting. Background was subtracted of wells containing no enzyme. Percent inhibition was based on uninhibited controls log (inhibitor) vs. response. Variable slope equation was used with no constraints: Log Y=Bottom+(Top−Bottom)/(1+10^((Log IC50−X)*Hill Slope)).Analytical Instrumentation:NMR: Bruker UltraShield™-300 or Bruker Ascend™-400 spectrometers.LCMS: Shimadzu LCMS-2020 or Agilent technologies 1260 Infinity-6120 Quadrupole LC/MS.Purification:TLC plates: Thin-layer chromatography with E. Merck silica gel 60 F254 pre-coated plates (0.25 mm).Flash chromatography: Agela Technologies CHEETAH-MP200 CH16200 2T-A0099 or Biotage Isolera ISO-PSV ISPS 1832112.
RESULT_TYPE: IC50

Lookup: IC50 / Receptor-interacting serine/threonine-protein kinase 2 (Homo sapiens, UniProt O43353) / C[C@@H]1[C@H](c2cc3c(Nc4ccc5scnc5c4F)ccnc3s2)CCCN1C
< 10 nM
